# Lookup of reported IC50 (read off the curve): % GFP+ cyno LAIR-1 reporter cells on coated collagen 4 keyed by entry
- System tested: cyno LAIR-1-CD3ζ chimeric receptor on NFAT-GFP reporter cells (cynomolgus monkey; human)
- Sequence (P20963 other isoform, or with tags, fused parts or gaps mutant limits assumed): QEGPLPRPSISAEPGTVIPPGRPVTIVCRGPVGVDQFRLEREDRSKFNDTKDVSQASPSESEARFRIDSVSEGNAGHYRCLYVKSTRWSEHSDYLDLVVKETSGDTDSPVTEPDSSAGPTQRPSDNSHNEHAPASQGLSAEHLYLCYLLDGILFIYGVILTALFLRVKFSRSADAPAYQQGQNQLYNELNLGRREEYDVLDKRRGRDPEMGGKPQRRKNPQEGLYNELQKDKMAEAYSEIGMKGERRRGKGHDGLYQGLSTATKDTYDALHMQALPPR
- Test description: cell-based or functional assay

Qu. Please give the documented IC50 (read off the curve): % GFP+ cyno LAIR-1 reporter cells on coated collagen 4 of anti-LAIR-1 antibody ch57D12 (antibody, V domains shown, The prefix 'ch' is not defined) VH: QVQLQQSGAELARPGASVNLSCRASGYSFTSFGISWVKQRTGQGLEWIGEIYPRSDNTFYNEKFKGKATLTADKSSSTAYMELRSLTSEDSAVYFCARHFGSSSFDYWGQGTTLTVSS VL: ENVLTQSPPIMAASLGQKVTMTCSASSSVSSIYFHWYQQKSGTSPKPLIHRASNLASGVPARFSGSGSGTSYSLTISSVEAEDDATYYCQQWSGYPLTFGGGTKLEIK
Ans. ~0.8 nM

Qu. Please give the documented IC50 (read off the curve): % GFP+ cyno LAIR-1 reporter cells on coated collagen 4 of anti-LAIR-1 antibody ch62G10 (antibody, V domains shown, The prefix 'ch' is not defined) VH: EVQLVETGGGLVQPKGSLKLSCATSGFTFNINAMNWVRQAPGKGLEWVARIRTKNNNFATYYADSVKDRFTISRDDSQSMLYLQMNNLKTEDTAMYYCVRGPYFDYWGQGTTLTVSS VL: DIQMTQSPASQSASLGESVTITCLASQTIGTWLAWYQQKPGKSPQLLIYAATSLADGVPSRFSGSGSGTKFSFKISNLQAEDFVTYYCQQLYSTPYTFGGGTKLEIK
Ans. ~0.2 nM

Qu. Please give the documented IC50 (read off the curve): % GFP+ cyno LAIR-1 reporter cells on coated collagen 4 of humanized anti-LAIR-1 antibody Hz62G10.v1 (antibody, human IgG1, kappa, N297G, V domains shown, Humanized 62G10) VH: EVQLVESGGGLVKPGGSLRLSCAASGFTFNINAMNWVRQAPGKGLEWVARIRTKNNNFATYYADSVKDRFTISRDDSKNTLYLQMNSLKTEDTAVYYCVRGPYFDYWGQGTLVTVSS VL: DIQMTQSPSSLSASVGDRVTITCLASQTIGTWLAWYQQKPGKAPKLLIYAATSLADGVPSRFSGSGSGTDFTLTISSLQPEDFATYYCQQLYSTPYTFGGGTKVEIKR
Ans. ~0.2 nM

Qu. Please give the documented IC50 (read off the curve): % GFP+ cyno LAIR-1 reporter cells on coated collagen 4 of anti-LAIR-1 antibody ch47H1 (antibody, V domains shown, The prefix 'ch' is not defined; detected with anti-human Fc secondary antibody) VH: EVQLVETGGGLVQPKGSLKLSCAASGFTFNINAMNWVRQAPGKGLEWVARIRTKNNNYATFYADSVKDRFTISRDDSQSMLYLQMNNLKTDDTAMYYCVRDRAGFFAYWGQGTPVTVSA VL: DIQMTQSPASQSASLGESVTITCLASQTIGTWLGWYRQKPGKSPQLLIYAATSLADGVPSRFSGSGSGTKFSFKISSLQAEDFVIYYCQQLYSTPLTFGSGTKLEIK
Ans. ~0.2 nM

The values you see were collected from patent US20220041711A1.
